Overview of recorded melting point for various compounds

Example cases with answers are listed next.
>>> result("Cc1ccncc1CN1CCC(=C2c3ccc(Cl)cc3CCc3cccnc32)CC1")
"95.5 to 101 °C"
>>> result("CCn1cc(C(=O)NC2CCCc3ccccc32)c(=O)c2cnc(N3CCCC3)nc21 (centres undefined)")
"284 to 286 °C"
>>> result("CNc1nc(-c2cccc(NC(=O)c3ccccc3)c2)c2cc(OCc3ccccc3)c(OC)cc2n1")
"204 to 206 °C"

Q: Look up melting point of Fc1ccc(C=Nn2cncn2)cc1 and report it.
Result: 118 to 120 °C

Q: Look up melting point of CN(C)N=Nc1cc(-c2ccccc2)sc1C(N)=O and report it.
Result: 220 to 222 °C

Q: Look up melting point of Cc1ccccc1Nc1nc(NCCc2ccccc2)nc2ccccc12 and report it.
Result: 95 to 96 °C

Q: Look up melting point of COC(=O)c1cc(-c2ccccc2)c(=O)n2ncc3ccccc3c12 and report it.
Result: 174 to 175 °C

Q: Look up melting point of CC(C)NCC(O)COc1cccc(-c2oc3ccccc3c2C(=O)c2ccc(Cl)cc2)c1 (centres undefined) and report it.
Result: 53 to 60 °C

Q: Look up melting point of O=C(O)C(=O)CC(=O)c1cc(C(=O)CC(=O)C(=O)O)n(Cc2ccc(F)cc2)n1 and report it.
Result: 215 to 217 °C

====

Overview of recorded melting point for various compounds

>>> result("N#Cc1c(N2CCN(C(=O)c3cccs3)CC2)c2cccnc2n(C2CCCCC2)c1=O")
"192 °C"
>>> result("CC(C)(C)OC(=O)Nc1cnc(F)cc1C(=O)CC#N")
"106 to 115 °C"
>>> result("OCc1cn2c(n1)CN=C(c1ccccc1Cl)c1cc(Cl)ccc1-2")
"174 to 175 °C"
>>> result("COc1ccc(Br)cc1C1=NC(C)(C)CO1")
"41 °C"
>>> result("S=C(NN=Cc1cccc(-c2ccccc2Cl)n1)NN1CCCC1")
"187 to 188 °C"
>>> result("CC1COc2c(F)c(F)c([N+](=O)[O-])c3c(=O)[nH]c(=O)n1c23 (stereo unspecified)")
"286 to 288 °C"
>>> result("CC(C)Nc1nc2c(Cl)cccc2n1[C@H]1O[C@@H](CO)[C@H](O)[C@@H]1O")
"225 to 227 °C"
>>> result("CC(N)c1ccc(C(=O)O)cc1 (stereo unspecified)")
"> 300 °C"
>>> result("CNC(=O)[C@]1(n2cnc3c(NCc4cccc(I)c4)nc(Cl)nc32)SC[C@H](O)[C@@H]1O")
"205 to 207 °C"
>>> result("Cc1cc(C)c(C(=O)CCCCC(=O)O)c(O)c1C")
"146 to 148 °C"

Shift focus to the following entry.
Q: Look up melting point of CNCC1CN(c2c(F)cc3c(=O)c(C(=O)O)cn(C4CC4)c3c2Cl)CC1C (stereo unspecified) and report it.
Result: 253 to 255 °C

====

Overview of recorded melting point for various molecules

Example cases with answers are listed next.
>>> result("CC(COc1ccc(-n2cncn2)cc1)(NS(=O)(=O)Cc1ccccc1)C(N)=O (stereo not given)")
"195 to 198 °C"
>>> result("Cc1ccccc1Cc1ccc(=O)[nH]n1")
"156 to 157 °C"
>>> result("CN(Cc1ccccc1)c1sc(-c2ccncc2)c2c1C(=O)CC2")
"145 to 147 °C"
>>> result("CN(C)CCCCCOc1ccc2oc(-c3ccccc3)cc(=O)c2c1")
"82 to 83 °C"
>>> result("O=c1c2cnc(-c3ccccc3)nc2sn1CCc1ccccn1")
"132 to 133 °C"
>>> result("O=C(NCCCCCn1cncn1)c1ccc(Br)cc1")
"93 to 95 °C"
>>> result("c1ccc2c(Cn3c(-c4ccc5c(c4)OCO5)nc4ccccc43)cccc2c1")
"166 to 168 °C"
>>> result("CC1(C)CC(=O)C2=C(C1)NC1=C(C(=O)CC(C)(C)C1)C2c1cccc(-c2ccccc2)c1")
"227 to 229 °C"

Q: Look up melting point of Cc1cccc2c1C(=O)N(C)CC(=O)N2 and report it.
Result: 200 to 202 °C

Q: Look up melting point of CN(SC(Cl)(Cl)Cl)C(=O)OC(C(Oc1ccc(Cl)cc1)n1cncn1)C(C)(C)C (stereo not given) and report it.
Result: 110 to 112 °C

Q: Look up melting point of CCOC(=O)c1cn(-c2nonc2C)c2cc(F)c(F)c(C)c2c1=O and report it.
Result: 174 °C

Q: Look up melting point of O=c1oc2cc(O)c(O)c([N+](=O)[O-])c2cc1-c1nnn[nH]1 and report it.
Result: > 315 °C

Q: Look up melting point of Nc1nnc(-c2ccc3ncn(-c4ccccc4Cl)c3c2)o1 and report it.
Result: 254 to 255 °C

Q: Look up melting point of Cc1nc2c(C)cccn2c(=O)c1CCN1CC=C(c2c[nH]c3ccc(F)cc23)CC1 and report it.
Result: 229 to 230 °C

Q: Look up melting point of C=C1CCC(C(=O)OC)Cc2onc(-c3ccc(Cl)cc3)c21 (stereo not given) and report it.
Result: 113 to 114 °C

Q: Look up melting point of CCCc1c(OCCCSc2c(F)cccc2C(=O)CCC(=O)O)ccc(C(C)=O)c1O and report it.
Result: 115 to 116 °C

Q: Look up melting point of CC1(CO)Cc2nnc(-c3ccc(-c4ccc(F)cc4)cc3C(F)(F)F)n2CCS1 (stereo not given) and report it.
Result: 202 to 204 °C

Q: Look up melting point of CCOc1cnn(-c2cc(-c3ccnc(Nc4cccc(Cl)c4)n3)ccn2)c(=O)c1Cl and report it.
Result: 196 to 198 °C

Q: Look up melting point of CCCCCN1C(=O)C2CC(c3ccc(N)cc3)(C2)C1=O and report it.
Result: 92 to 94 °C

Q: Look up melting point of c1cc(-c2nccs2)cc(-n2cnc3cc(-c4ccon4)ccc32)c1 and report it.
Result: 157 to 158 °C

====

TEST READOUT: melting point

Example cases with answers are listed next.
>>> result("O=C(NCc1ccc2cc(O)ccc2c1)c1cc2ccccc2o1")
"200 to 202 °C"
>>> result("c1ccc(CCC2CCN(Cc3n[nH]c4ccccc34)CC2)cc1")
"153 to 155 °C"
>>> result("Cc1cc(CCCc2ccc(CO)c(CO)c2)ccc1O")
"92 °C"
>>> result("COC(=O)NC(=N)C(C)C")
"127 to 130 °C"

Q: Look up melting point of COc1ccc(C(=O)c2ccc(O)cc2)c(OC(C)(C)C(=O)OC(C)(C)C)c1 and report it.
Result: 172 to 173 °C

Q: Look up melting point of COc1ccc(-c2ccc(=O)[nH]n2)c(OCC(O)CNC(C)(C)C)c1 (stereo not given) and report it.
Result: 159 to 161 °C

Q: Look up melting point of CC(=O)SCC(Cc1ccccc1)C(=O)Nc1cc(C(=O)O)cc(C(F)(F)F)c1 (stereo not given) and report it.
Result: 62 to 67 °C

Q: Look up melting point of CCC(OC)c1ccc(Cl)c2nc3n(c12)CCCN3c1ccc(Cl)cc1Cl (stereo not given) and report it.
Result: 136 to 137 °C

Q: Look up melting point of O=C(O)c1cc(F)cc(-c2ccc(F)c3cc(Cc4cccc(C(F)(F)F)c4)sc23)c1 and report it.
Result: 169 to 170 °C

Q: Look up melting point of O=C(O)C(=O)c1ccc(C(=O)NCCOc2ccc3ccccc3c2)cc1 and report it.
Result: 173 to 175 °C

====

TEST READOUT: melting point

Example cases with answers are listed next.
>>> result("CSc1nn(-c2c(Cl)cc(C(F)(F)F)cc2Cl)c2ncnc(-c3ccccc3Cl)c12")
"156 to 158 °C"
>>> result("Cc1ccc2c(c1)CC(=O)c1cc(CC(=O)O)ccc1O2")
"154 to 155 °C"
>>> result("CC(C)(C)OC(=O)N1CCN(C(=O)C2C3CCC(O3)C2C(=O)O)CC1 (stereo not given)")
"206 to 208 °C"

Q: Look up melting point of CC1(C)CCC(C)(C)c2cc(O)ccc21 and report it.
Result: 142 °C

Q: Look up melting point of O=Cc1ccc2cc(OCc3ccccc3)ccc2c1 and report it.
Result: 107 to 108 °C

====

Overview of recorded melting point for various compounds

>>> result("CC(C)(C)C1=CC(O)(c2ccc(F)cc2)C=C(C(C)(C)C)C1=O")
"123 to 125 °C"

Q: Look up melting point of N#CCCNC(=O)c1cccc(-c2cccc3nn(Cc4ccc(F)c(Cl)c4)cc23)c1 and report it.
Result: 165 to 166 °C

Q: Look up melting point of CC1CCc2c(-c3ccccc3)nc(=O)n(C(C)C)c2C1 (stereo unspecified) and report it.
Result: 150 to 153 °C

Q: Look up melting point of CCN(CC)Nc1ccc(CN2OCC(C)(C)C2=O)c(Cl)c1 and report it.
Result: 139 to 141 °C

Q: Look up melting point of CCc1c(-c2ccc(OC)cc2)c2cc(C(C)=O)c3cccc1n32 and report it.
Result: 73 to 75 °C

Q: Look up melting point of Nc1ccc2c(C3=CN4CCC3CC4)c[nH]c2c1 and report it.
Result: 65 to 67 °C

Q: Look up melting point of COc1ccc(-c2nc(-c3nccn3Cc3ccccc3)[nH]c2-c2ccc(OC)cc2)cc1 and report it.
Result: 180 °C

Q: Look up melting point of O=[N+]([O-])C=C1CN=C(c2ccccc2)c2cc(Cl)sc2N1 and report it.
Result: 154 to 156 °C

Q: Look up melting point of c1ccc2c(c1)CC[C@H]1O[C@@H]21 and report it.
Result: 47 to 48 °C

Q: Look up melting point of COc1ccc(OCC(O)COc2cccc3oc(C(=O)O)cc(=O)c23)cc1 (stereo unspecified) and report it.
Result: 125 to 126 °C

Q: Look up melting point of CC(=O)Nc1cccc(/C=C/C(=O)N2CC(CCl)c3c2cc([N+](=O)[O-])c2ccccc32)c1 (stereo unspecified) and report it.
Result: 214 to 216 °C

Q: Look up melting point of CCN(CC)CCOc1ccc(NC(=O)CC(=O)c2ccc(-c3ccccc3)cc2)cc1Cl and report it.
Result: 148 to 151 °C

Q: Look up melting point of CCCCCCCCCCN(O)C(=O)NCCCC(=O)OC and report it.
Result: 89 to 90 °C

Q: Look up melting point of CC(C)NC(=O)Nc1ccc2c(c1Cl)C(c1ccccc1F)=NCC(=O)N2C and report it.
Result: 130 to 140 °C

Q: Look up melting point of O=c1c(Cl)c(C(F)(F)F)nc(Nc2cc(C(F)(F)F)ccc2C(F)(F)F)n1C1CCCCC1 and report it.
Result: 181 to 183 °C

Q: Look up melting point of Cc1c(C)n(CC=C(Cl)Cl)c2c(OCc3ccccc3)nncc12 and report it.
Result: 149 to 151 °C

Q: Look up melting point of O=C(CC1CCOCC1)c1c(O)c2cccnc2n(-c2ccccc2)c1=O and report it.
Result: 198 to 203 °C

Q: Look up melting point of CNCC#CC1=Cc2ccccc2Sc2ccc(Cl)cc21 and report it.
Result: 92 to 94 °C

Q: Look up melting point of Nc1cccc(C(=O)c2ccc(Oc3ccccc3)c(N)c2)c1 and report it.
Result: 112 to 113 °C

Q: Look up melting point of Cc1ccc(-c2nccc3c(Cl)cccc23)cc1 and report it.
Result: 88.6 to 89.1 °C

Q: Look up melting point of COc1cc(-c2nn(C)c(C(N)=O)c2C)c(F)cc1Cl and report it.
Result: 224 to 226 °C
